Origin of measurements: BigSolDB 2.1

- EXPERIMENTAL CONDITIONS: in 2-pentanone, 287.95 K
EXPERIMENTAL READOUT: solubility (mole fraction)
Give bare numbers.

Fill in the blank: the reported solubility (mole fraction) of CC(N)=S is ____.
0.152

----------
- EXPERIMENTAL CONDITIONS: in isopropanol, 308.05 K
EXPERIMENTAL READOUT: solubility (mole fraction)
One number for each entry.

Fill in the blank: the reported solubility (mole fraction) of CC(N)=S is ____.
0.158

----------
- EXPERIMENTAL CONDITIONS: in isobutanol, 293.25 K
EXPERIMENTAL READOUT: solubility (mole fraction)
One number for each entry.

Fill in the blank: the reported solubility (mole fraction) of CC(N)=S is ____.
0.0761

----------
- EXPERIMENTAL CONDITIONS: in isopentanol, 323.15 K
EXPERIMENTAL READOUT: solubility (mole fraction)

Fill in the blank: the reported solubility (mole fraction) of CC(N)=S is ____.
0.239

----------
- EXPERIMENTAL CONDITIONS: in acetone, 297.85 K
EXPERIMENTAL READOUT: solubility (mole fraction)
One number for each entry.

Fill in the blank: the reported solubility (mole fraction) of CC(N)=S is ____.
0.234

----------
- EXPERIMENTAL CONDITIONS: in 2-pentanone, 282.55 K
EXPERIMENTAL READOUT: solubility (mole fraction)
Give bare numbers.

Fill in the blank: the reported solubility (mole fraction) of CC(N)=S is ____.
0.136

----------
- EXPERIMENTAL CONDITIONS: in ethyl formate, 282.55 K
EXPERIMENTAL READOUT: solubility (mole fraction)

Fill in the blank: the reported solubility (mole fraction) of CC(N)=S is ____.
0.0596

----------
- EXPERIMENTAL CONDITIONS: in ethanol, 288.25 K
EXPERIMENTAL READOUT: solubility (mole fraction)
Give bare numbers.

Fill in the blank: the reported solubility (mole fraction) of CC(N)=S is ____.
0.105

----------
- EXPERIMENTAL CONDITIONS: in methanol, 293.25 K
EXPERIMENTAL READOUT: solubility (mole fraction)
Answers are plain numbers.

Fill in the blank: the reported solubility (mole fraction) of CC(N)=S is ____.
0.163

----------
- EXPERIMENTAL CONDITIONS: in isopentanol, 283.45 K
EXPERIMENTAL READOUT: solubility (mole fraction)
One number for each entry.

Fill in the blank: the reported solubility (mole fraction) of CC(N)=S is ____.
0.0528

----------
- EXPERIMENTAL CONDITIONS: in acetonitrile, 303.05 K
EXPERIMENTAL READOUT: solubility (mole fraction)
Give bare numbers.

Fill in the blank: the reported solubility (mole fraction) of CC(N)=S is ____.
0.136

----------
- EXPERIMENTAL CONDITIONS: in isobutanol, 323.15 K
EXPERIMENTAL READOUT: solubility (mole fraction)
Numbers only.

Fill in the blank: the reported solubility (mole fraction) of CC(N)=S is ____.
0.223

----------
- EXPERIMENTAL CONDITIONS: in 2-pentanone, 279.35 K
EXPERIMENTAL READOUT: solubility (mole fraction)
One number for each entry.

Fill in the blank: the reported solubility (mole fraction) of CC(N)=S is ____.
0.127

----------
- EXPERIMENTAL CONDITIONS: in 2-butanone, 313.15 K
EXPERIMENTAL READOUT: solubility (mole fraction)
Answers are plain numbers.

Fill in the blank: the reported solubility (mole fraction) of CC(N)=S is ____.
0.289

----------
- EXPERIMENTAL CONDITIONS: in acetone, 287.95 K
EXPERIMENTAL READOUT: solubility (mole fraction)
Give bare numbers.

Fill in the blank: the reported solubility (mole fraction) of CC(N)=S is ____.
0.195

----------
- EXPERIMENTAL CONDITIONS: in isopropanol, 293.25 K
EXPERIMENTAL READOUT: solubility (mole fraction)
Give bare numbers.

Fill in the blank: the reported solubility (mole fraction) of CC(N)=S is ____.
0.0949

----------
- EXPERIMENTAL CONDITIONS: in isopentanol, 318.25 K
EXPERIMENTAL READOUT: solubility (mole fraction)
Answers are plain numbers.

Fill in the blank: the reported solubility (mole fraction) of CC(N)=S is ____.
0.203

----------
- EXPERIMENTAL CONDITIONS: in isobutanol, 273.15 K
EXPERIMENTAL READOUT: solubility (mole fraction)
Give bare numbers.

Fill in the blank: the reported solubility (mole fraction) of CC(N)=S is ____.
0.0323

----------
- EXPERIMENTAL CONDITIONS: in ethyl formate, 279.35 K
EXPERIMENTAL READOUT: solubility (mole fraction)

Fill in the blank: the reported solubility (mole fraction) of CC(N)=S is ____.
0.0536

----------
- EXPERIMENTAL CONDITIONS: in 2-pentanone, 318.05 K
EXPERIMENTAL READOUT: solubility (mole fraction)
One number for each entry.

Fill in the blank: the reported solubility (mole fraction) of CC(N)=S is ____.
0.26

----------
- EXPERIMENTAL CONDITIONS: in acetone, 282.55 K
EXPERIMENTAL READOUT: solubility (mole fraction)
Give bare numbers.

Fill in the blank: the reported solubility (mole fraction) of CC(N)=S is ____.
0.176

----------
- EXPERIMENTAL CONDITIONS: in 2-butanone, 287.95 K
EXPERIMENTAL READOUT: solubility (mole fraction)
One number for each entry.

Fill in the blank: the reported solubility (mole fraction) of CC(N)=S is ____.
0.185

----------
- EXPERIMENTAL CONDITIONS: in isobutanol, 298.15 K
EXPERIMENTAL READOUT: solubility (mole fraction)
One number for each entry.

Fill in the blank: the reported solubility (mole fraction) of CC(N)=S is ____.
0.0922

----------
- EXPERIMENTAL CONDITIONS: in ethanol, 277.95 K
EXPERIMENTAL READOUT: solubility (mole fraction)
Answers are plain numbers.

Fill in the blank: the reported solubility (mole fraction) of CC(N)=S is ____.
0.0752

----------
- EXPERIMENTAL CONDITIONS: in n-propanol, 302.35 K
EXPERIMENTAL READOUT: solubility (mole fraction)
Numbers only.

Fill in the blank: the reported solubility (mole fraction) of CC(N)=S is ____.
0.144

----------
- EXPERIMENTAL CONDITIONS: in isopropanol, 273.15 K
EXPERIMENTAL READOUT: solubility (mole fraction)
Give bare numbers.

Fill in the blank: the reported solubility (mole fraction) of CC(N)=S is ____.
0.0439

----------
- EXPERIMENTAL CONDITIONS: in n-butanol, 308.05 K
EXPERIMENTAL READOUT: solubility (mole fraction)
One number for each entry.

Fill in the blank: the reported solubility (mole fraction) of CC(N)=S is ____.
0.186

----------
- EXPERIMENTAL CONDITIONS: in ethanol, 273.15 K
EXPERIMENTAL READOUT: solubility (mole fraction)

Fill in the blank: the reported solubility (mole fraction) of CC(N)=S is ____.
0.064

----------
- EXPERIMENTAL CONDITIONS: in ethyl acetate, 272.85 K
EXPERIMENTAL READOUT: solubility (mole fraction)
Give bare numbers.

Fill in the blank: the reported solubility (mole fraction) of CC(N)=S is ____.
0.0646

----------
- EXPERIMENTAL CONDITIONS: in methyl acetate, 287.95 K
EXPERIMENTAL READOUT: solubility (mole fraction)

Fill in the blank: the reported solubility (mole fraction) of CC(N)=S is ____.
0.0957

----------
- EXPERIMENTAL CONDITIONS: in n-pentanol, 308.05 K
EXPERIMENTAL READOUT: solubility (mole fraction)
One number for each entry.

Fill in the blank: the reported solubility (mole fraction) of CC(N)=S is ____.
0.149

----------
- EXPERIMENTAL CONDITIONS: in methanol, 288.25 K
EXPERIMENTAL READOUT: solubility (mole fraction)

Fill in the blank: the reported solubility (mole fraction) of CC(N)=S is ____.
0.141

----------
- EXPERIMENTAL CONDITIONS: in n-butanol, 302.35 K
EXPERIMENTAL READOUT: solubility (mole fraction)
Numbers only.

Fill in the blank: the reported solubility (mole fraction) of CC(N)=S is ____.
0.149

----------
- EXPERIMENTAL CONDITIONS: in 2-pentanone, 272.85 K
EXPERIMENTAL READOUT: solubility (mole fraction)
Answers are plain numbers.

Fill in the blank: the reported solubility (mole fraction) of CC(N)=S is ____.
0.111
